Test system: ATP;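 also: ATP exposure 15 min at 22 °C before imaging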
Experiment: switch fluorescence ratio, 500 uM ATP over buffer (Cy3 cluster intensity, sum of 5 cycles each) (fold (ratio)); higher = stronger signal-on switching upon ATP binding; sequences stand for … in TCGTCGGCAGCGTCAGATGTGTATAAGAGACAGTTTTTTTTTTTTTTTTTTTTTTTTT…TC
Conditions: aptamer strand: ATP DNA aptamer (quencher-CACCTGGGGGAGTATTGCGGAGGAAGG + anchor), 100 nM annealed; ATP concentration: 500 uM
measurement type: switch fluorescence ratio
I'd appreciate a reply containing only the number, no unit.

# primary sequence, obs value
data = [
    ("CCGAACTTTT", 1.07),
]

Entry TTTCTTGCCA , system ATP: what switch fluorescence ratio was measured?;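 also: ATP exposure 15 min at 22 °C before imaging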
1.02

Try the sequence GTTGATAACT
1.01

Try the sequence TGTGTCCTGC
0.965

Try the sequence TTTTTGGATT
1

Try the sequence ATCAAACTCG
0.979

Try the sequence ATGAGTACAG
1.02

Try the sequence CTCTATTTGA
0.977

Try the sequence CGGATTTAGA
0.987

Try the sequence TTCAGTGCAT
1.02

Try the sequence CTTGGGGATT
0.99

Try the sequence GGTGGTCCCT
0.99

Try the sequence GTAGTTCGCC
1.02

Try the sequence ATGGTTAGTG
0.975

Try the sequence TCGCAAAATA
2.47
